# test_name: Cytotoxicity against fibroblasts (unknown origin) assessed as cell growth inhibition incubated for 6 hrs by SRB assay
# Type: toxicity, cell-based, Fibroblast
readout_kind: IC50 at 6 h (µM)

- CC1(C)CCC[C@@]2(C)Oc3c(c(O)cc4oc(-c5ccc(O)c(O)c5)cc(=O)c34)C[C@@H]12: 21.9
- CC1(C)CCC[C@@]2(C)Oc3cc4oc(-c5ccc(O)c(O)c5)cc(=O)c4c(O)c3C[C@@H]12: 37.1
- CC1(C)CCC[C@]2(C)Oc3c(c(O)cc4oc(-c5ccc(O)c(O)c5)cc(=O)c34)C[C@@H]12: 24.5
- CC1(C)CCC[C@]2(C)Oc3c(c(O)cc4oc(-c5ccc(O)c(O)c5)cc(=O)c34)C[C@H]12: 34.1
- CC1(C)CCC[C@]2(C)Oc3cc4oc(-c5ccc(O)c(O)c5)cc(=O)c4c(O)c3C[C@H]12: 24.5
- CC1(C)CCC[C@@]2(C)Oc3cc(O)c4c(=O)cc(-c5ccc(O)c(O)c5)oc4c3C[C@@H]12: 27.5
- COc1cccc2c1C(=O)c1c(O)c3c(c(O)c1C2=O)C[C@@](O)(C(=O)CO)C[C@@H]3O[C@H]1C[C@H](N)[C@H](O)[C@H](C)O1: 56.3
- CC1(C)CCC[C@]2(C)Oc3cc(O)c4c(=O)cc(-c5ccc(O)c(O)c5)oc4c3C[C@H]12: 33.2
- CC1(C)CCC[C@@]2(C)Oc3c(c(O)cc4oc(-c5ccc(O)c(O)c5)cc(=O)c34)C[C@H]12: 36
